Hey, just so you know, these numbers are from the supplement of paper PMC8728848.

- Subject of test: Gal(b1-3)GalNAc(b1-3)Gal(b1-4)GlcNAc
- Experiment description: glycan array binding signal (z-score within array); higher = stronger binding
- Reported conditions: glycan notation: IUPAC condensed, linker removed
This is one part of a sample in which the strongest signals are shown more often than they occur.
Could you please report measured glycan array binding signal (z-score) for the items listed next?
Numbers only.

In the examples that follow, each entry is paired with its recorded glycan array binding signal (z-score).
Binder: FBG4 (Homo sapiens), Q96EF6 (protein) MGARLSRRRLPADPSLALDALPPELLVQVLSHVPPRSLVTRCRPVCRAWRDIVDGPTVWLLQLARDRSAEGRALYAVAQRCLPSNEDKEEFPLCALARYCLRAPFGRNLIFNSCGEQGFRGWEVEHGGNGWAIEKNLTPVPGAPSQTCFVTSFEWCSKRQLVDLVMEGVWQELLDSAQIEICVADWWGARENCGCVYQLRVRLLDVYEKEVVKFSASPDPVLQWTERGCRQVSHVFTNFGKGIRYVSFEQYGRDVSSWVGHYGALVTHSSVRVRIRLS
glycan array binding signal (z-score): -0.307
--
Binder: Gal 7 (Homo sapiens) (protein) MSNVPHKSSLPEGIRPGTVLRIRGLVPPNASRFHVNLLCGEEGGSDAALHFNPRLDTSEVVFNSKEGGSWGREERGPGVPFGRGQPFEVLIIASDDGFKAVVGDAQYHHFRHRLPLARVRLVEVGGDVQLDSVRIF
glycan array binding signal (z-score): 0.962

The binder listed as FBG3 (Homo sapiens), Q9H4M3 (protein) MAVGNINELPENILLELFTHVPARQLLLNCRLVCSLWRDLIDLVTLWKRKCLREGFITEDWDQPVADWKIFYFLRSLHRNLLHNPCAEEGFEFWSLDVNGGDEWKVEDLSRDQRKEFPNDQVKKYFVTSYYTCLKSQVVDLKAEGYWEELMDTTRPDIEVKDWFAARPDCGSKYQLCVQLLSSAHAPLGTFQPDPATIQQKSDAKWREVSHTFSNYPPGVRYIWFQHGGVDTHYWAGWYGPRVTNSSITIGPPLP shows glycan array binding signal (z-score) equal to -0.569
